// values below are reported TGI
Test system: IGROV1 ovarian
Test: NCI tumour cell line growth inhibition, 48 h

The recorded TGI for entry O=Nc1ccc(O)c(=O)cc1 equals 11.3 µM

Just so you know, measured TGI for COC(=O)/C=C1\C(=O)N(C(C)=O)c2ccc(Br)cc21 came out at 20.7 µM

GET /value?item= OC(c1ccccc1)(c1ccccc1)c1nccc2ccccc12 &field=TGI returns > 100 µM

Kindly note the recorded TGI for O=c1ccn(CC2(CO)CCC2)c(=O)[nH]1 , which is > 100 µM

The value of TGI measured for the compound CCCCNC(=O)c1cc2c(cc1Cl)Sc1nccn1S2(=O)=O turned out to be > 100 µM
